Parameter: Inhibition. Scope: all listed entries.
- Tested on: HepG2
- Assay method text: GSK_TCMDC: Percent inhibition of human HepG2 cell line. Test compounds present at 10uM.
- Format: functional
Supply the numeric figure in %, leaving out any unit text.

Example entries begin here.
molecule=Cc1nc(N)nc(N)c1-c1ccc(Br)c([N+](=O)[O-])c1 experimental_value=64
molecule="COc1cccc(NC(=O)NC2CCN(c3ccnc(Nc4cc(OC)c(OC)c(OC)c4)n3)C2)c1 (centres undefined)" experimental_value=8
molecule=O=C(Nc1ccc(-c2ccc(CN3CCNCC3)cc2)cc1)c1cccc(Cl)c1.O=C(O)C(F)(F)F experimental_value=58

### Prompt Consider the molecule COc1cccc(CNc2ncc(-c3ccsc3)c(-c3nccs3)n2)c1 and give its recorded Inhibition.
### Response 9

### Prompt Determine from records and report Inhibition for COc1cc(OCCCN(C)Cc2ccc(OC)c(OC)c2)ccc1NC(=O)c1cccc2c(O)c3cccc(F)c3nc12
### Response 10

### Prompt Tell me measured Inhibition for CC(C)NCC(O)COc1ccc(Cc2ccc(OCC(O)CNC(C)C)cc2)cc1.Cl (centres undefined) please.
### Response 0

### Prompt Using known records, supply Inhibition for CC(C)(C)c1ccc(NC(=O)c2cccc(CN3CCCN(Cc4ccc(F)cc4)CC3)c2)cc1.O=C(O)C(F)(F)F
### Response 35

### Prompt Give recorded Inhibition. O=C(Nc1ccc(-c2nc3ccccc3[nH]2)cc1)c1cccc([N+](=O)[O-])c1
### Response 45

### Prompt Determine its reported Inhibition: Cc1nc2nc(N)nc(N)c2c(C)c1Cc1ccccc1.Cl
### Response 62

====

- System: Plasmodium falciparum
- Assay method text: GSK_TCMDC: Inhibition of Plasmodium falciparum Dd2 in whole red blood cells, using parasite LDH activity as an index of growth. Test compounds present at 2uM
- Assay type: functional
Rule: 1 for Inhibition not less than 30%, 0 for anything less.

Answered cases to consult:
compound=Cn1cc(CCNc2ccnc(NCCc3coc4ccccc34)n2)c2ccccc21 assay_target="Plasmodium falciparum" classification=0
compound="O=C1Nc2cccc3c2C1(CCCCN1CCC(c2c[nH]c4cc(C(F)(F)F)ccc24)CC1)CCC3 (centres undefined)" assay_target="Plasmodium falciparum" classification=1
compound=COc1cc(NC(=O)/C=C/c2cc(F)cc(F)c2F)cc(OCCN2CCC3(CC2)OCCO3)c1.O=C(O)C(=O)O assay_target="Plasmodium falciparum" classification=0
compound=CS(=O)(=O)c1ccccc1CNC(=O)c1cccc(-c2ccc(-c3nc4cc(C(F)(F)F)ccc4[nH]3)cc2)c1 assay_target="Plasmodium falciparum" classification=0
compound=Cn1cc(C2CCN(CCCCNC(=O)c3ccc(C(=O)Nc4ccc(C#N)cc4)cc3)CC2)c2ccccc21 assay_target="Plasmodium falciparum" classification=1
compound=O=C(Nc1cccnc1)c1cn(-c2ccccc2)nc1-c1cccs1 assay_target="Plasmodium falciparum" classification=1
compound=COC(=O)Nc1ccc(-c2ccc(C(=O)NC3CCN(C[C@H](O)c4ccnc5ccc(OC)cc45)CC3)cc2)c(C)c1 assay_target="Plasmodium falciparum" classification=1
compound="Br.C=CCN1Cc2c(O)cccc2C(c2ccc(O)c(O)c2)C1 (centres undefined)" assay_target="Plasmodium falciparum" classification=0

### Prompt Please indicate if the recorded Inhibition for CCNC[C@@H](O)[C@H](Cc1ccccc1)NC(=O)c1cc2c3c(c1)c(CC)cn3CCS(=O)(=O)N2C.O=CO meets or exceeds 30%.
### Response 1

Origin of the recorded values: ChEMBL document CHEMBL1157539
